# TARGET UNDER TEST: human α7 nAChR (Homo sapiens, UniProt P36544)
# Sequence (P36544 23-502): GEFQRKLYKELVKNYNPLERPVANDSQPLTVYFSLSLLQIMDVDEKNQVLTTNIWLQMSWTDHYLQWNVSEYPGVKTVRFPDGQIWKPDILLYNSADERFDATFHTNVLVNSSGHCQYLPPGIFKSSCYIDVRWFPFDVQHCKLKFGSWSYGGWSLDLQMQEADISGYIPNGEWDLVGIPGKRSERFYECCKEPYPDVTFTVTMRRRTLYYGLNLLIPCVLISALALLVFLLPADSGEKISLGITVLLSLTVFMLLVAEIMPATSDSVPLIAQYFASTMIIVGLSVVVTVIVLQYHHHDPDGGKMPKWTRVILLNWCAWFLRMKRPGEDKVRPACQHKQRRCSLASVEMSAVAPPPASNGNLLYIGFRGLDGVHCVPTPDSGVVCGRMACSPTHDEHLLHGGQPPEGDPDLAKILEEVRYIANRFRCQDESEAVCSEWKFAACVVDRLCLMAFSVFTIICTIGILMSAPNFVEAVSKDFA
# ASSAY EXPLANATION: Automated patch-clamp electrophysiology functional assay (Assay A)
# Format: cell-based
# TEST CONTEXT: IonFlux HT whole-cell population patch; HEK cell line stably expressing human RIC-3 and human α7; 40 μM acetylcholine; read-out: α7 nAChR EC50
Measured pEC50, listed per entry for reference.
Keep it numeric: pEC50 is minus log10 of the concentration in mol/L.

[
  {
    "COMPOUND": "CC1(C)[C@@H](c2ccc(S(N)(=O)=O)cn2)[C@@H]1c1nc(-c2cccc(F)c2)no1",
    "REPORTED RESULT": 5.96
  }
]

Tell me its pEC50 given CC1(C)[C@H](c2ccc(S(N)(=O)=O)nc2)[C@H]1c1nc(-c2ccccc2)no1 as the entry.
5.82

Tell me its pEC50 given CC1(C)[C@@H](c2ccc(S(N)(=O)=O)cn2)[C@@H]1c1nc(C2CC(F)(F)C2)no1 (racemic) [Example G5] as the entry.
5.44

Tell me its pEC50 given CC1(C)[C@@H](c2ccc(S(N)(=O)=O)nc2)[C@@H]1c1nc(C2CCC2)no1 as the entry.
6.21

Tell me its pEC50 given CC1(C)[C@@H](c2nc3ccccc3o2)[C@@H]1c1ncc(S(N)(=O)=O)s1 (racemic) [Example D1] as the entry.
5.70

* * *

# TARGET UNDER TEST: human α7 nAChR (Homo sapiens)
# ASSAY EXPLANATION: Automated patch-clamp electrophysiology functional assay (Assay A)
# Assay type: cell-based
# TEST CONTEXT: IonFlux HT whole-cell population patch; HEK cell line stably expressing human RIC-3 and human α7; 40 μM acetylcholine; read-out: α7 nAChR EC50
PARAMETER MEASURED: pEC50
Keep it numeric: pEC50 is minus log10 of the concentration in mol/L.

[
  {
    "COMPOUND": "NS(=O)(=O)c1cnc([C@@H]2C[C@H]2c2nc(-c3ccccc3)no2)s1 (racemic) [Example D8]",
    "TARGET UNDER TEST": "human α7 nAChR (Homo sapiens)",
    "REPORTED RESULT": 6.00
  },
  {
    "COMPOUND": "CC1(C)[C@@H](c2ccc(S(N)(=O)=O)cn2)[C@@H]1c1nc(-c2ccc(F)cc2F)no1 [Example F5]",
    "TARGET UNDER TEST": "human α7 nAChR (Homo sapiens)",
    "REPORTED RESULT": 5.77
  },
  {
    "COMPOUND": "CC1(C)[C@@H](c2nc(-c3ccccc3)no2)[C@@H]1c1ncc(S(N)(=O)=O)s1 (racemic) [Example D4]",
    "TARGET UNDER TEST": "human α7 nAChR (Homo sapiens)",
    "REPORTED RESULT": 6.44
  },
  {
    "COMPOUND": "CC1(C)[C@@H](c2ccc(S(N)(=O)=O)nc2)[C@@H]1c1nc(-c2cncc(C(F)(F)F)c2)no1 [Example B4]",
    "TARGET UNDER TEST": "human α7 nAChR (Homo sapiens)",
    "REPORTED RESULT": 5.60
  },
  {
    "COMPOUND": "CC1(C)[C@@H](c2ccc(S(N)(=O)=O)cn2)[C@@H]1c1nc(C2CC2)no1 [Example F8]",
    "TARGET UNDER TEST": "human α7 nAChR (Homo sapiens)",
    "REPORTED RESULT": 5.85
  },
  {
    "COMPOUND": "CC1(C)[C@H](c2ccc(S(N)(=O)=O)nc2)[C@H]1c1nc(C2CC(F)(F)C2)no1 [Example A11]",
    "TARGET UNDER TEST": "human α7 nAChR (Homo sapiens)",
    "REPORTED RESULT": 5.52
  },
  {
    "COMPOUND": "CC1(C)C(c2ccc(S(N)(=O)=O)nc2)C1c1cc(-c2cccc(F)c2)on1 (single isomer, unassigned) [Example C13]",
    "TARGET UNDER TEST": "human α7 nAChR (Homo sapiens)",
    "REPORTED RESULT": 5.96
  },
  {
    "COMPOUND": "CC1(C)[C@H](c2ccc(S(N)(=O)=O)nc2)[C@H]1c1nc(-c2cncc(C(F)(F)F)c2)no1 [Example A2]",
    "TARGET UNDER TEST": "human α7 nAChR (Homo sapiens)",
    "REPORTED RESULT": 5.85
  },
  {
    "COMPOUND": "CC1(C)[C@@H](c2ccc(S(N)(=O)=O)nc2)[C@@H]1c1noc(C2CCCCC2)n1 (racemic) [Example C10]",
    "TARGET UNDER TEST": "human α7 nAChR (Homo sapiens)",
    "REPORTED RESULT": 5.68
  },
  {
    "COMPOUND": "CC1(C)[C@@H](c2ccc(S(N)(=O)=O)nc2)[C@@H]1c1nc(-c2ccccc2)no1 [Example 3]",
    "TARGET UNDER TEST": "human α7 nAChR (Homo sapiens)",
    "REPORTED RESULT": 6.42
  }
]

Tell me its pEC50 given CC1(C)[C@H](c2ccc(S(N)(=O)=O)nc2)[C@H]1c1ncc(-c2ccccc2)o1 [Example A15] as the entry.
5.80

Tell me its pEC50 given NS(=O)(=O)c1ccc(C2CC2c2nc(-c3ccccc3)no2)cn1 (racemic) [Example C5] as the entry.
5.96

Tell me its pEC50 given CC1(C)[C@@H](c2ccc(S(N)(=O)=O)cn2)[C@@H]1c1nc(-c2cncc(C(F)(F)F)c2)no1 [Example F2] as the entry.
5.48

Tell me its pEC50 given CC1(C)[C@H](c2ccc(S(N)(=O)=O)nc2)[C@H]1c1nc(C2CCCC2)no1 [Example A3] as the entry.
5.54

Tell me its pEC50 given CC(C)(C)c1noc([C@H]2[C@H](c3ccc(S(N)(=O)=O)nc3)C2(C)C)n1 [Example B12] as the entry.
5.80

* * *

Measured pEC50, listed per entry for reference.
# TARGET UNDER TEST: human α7 nAChR (Homo sapiens)
# ASSAY EXPLANATION: Automated patch-clamp electrophysiology functional assay (Assay A)
# Type: cell-based
# TEST CONTEXT: IonFlux HT whole-cell population patch; HEK cell line stably expressing human RIC-3 and human α7; 40 μM acetylcholine; read-out: α7 nAChR Potency
pEC50: −log10 of the molar value.

Look up human α7 nAChR (Homo sapiens) data: pEC50 of CC1(C)C(c2ccc(S(N)(=O)=O)nc2)C1c1nc2ccccc2o1 (single isomer, unassigned) [Example 1] , then report it.
6.30 to 7.00

Look up human α7 nAChR (Homo sapiens) data: pEC50 of CC1(C)C(c2ccc(S(N)(=O)=O)nc2)C1c1cc(-c2cccc(F)c2)on1 (single isomer, unassigned) [Example C13] , then report it.
5.30 to 6.30

Look up human α7 nAChR (Homo sapiens) data: pEC50 of CC1(C)[C@@H](c2ccc(S(N)(=O)=O)nc2)[C@@H]1c1nc(C2CCC2)no1 [Example B9] , then report it.
5.30 to 6.30

Look up human α7 nAChR (Homo sapiens) data: pEC50 of CC1(C)[C@H](c2ccc(S(N)(=O)=O)nc2)[C@H]1c1nc(CC2CC2)no1 [Example A13] , then report it.
5.30 to 6.30

* * *

# TARGET UNDER TEST: human α7 nAChR (Homo sapiens, UniProt P36544)
# ASSAY EXPLANATION: Automated patch-clamp electrophysiology functional assay (Assay A)
# Type: cell-based
# TEST CONTEXT: IonFlux HT whole-cell population patch; HEK cell line stably expressing human RIC-3 and human α7; 40 μM acetylcholine; read-out: α7 nAChR Potency
PARAMETER MEASURED: EC50

Here's what some known entries look like.
[
  {
    "COMPOUND": "CC1(C)[C@H](c2ccc(S(N)(=O)=O)nc2)[C@H]1c1nc(-c2cncc(C(F)(F)F)c2)no1 [Example A2]",
    "PARAMETER MEASURED": "EC50",
    "REPORTED RESULT": "500 to 5000 nM"
  },
  {
    "COMPOUND": "COc1ccc(Cl)cc1-c1noc([C@@H]2[C@@H](c3ccc(S(N)(=O)=O)nc3)C2(C)C)n1 [Example A6]",
    "PARAMETER MEASURED": "EC50",
    "REPORTED RESULT": "500 to 5000 nM"
  },
  {
    "COMPOUND": "CC1(C)[C@@H](c2ccc(S(N)(=O)=O)nc2)[C@@H]1c1nnc(-c2ccc(F)cc2F)s1 (relative stereo) [Example 2]",
    "PARAMETER MEASURED": "EC50",
    "REPORTED RESULT": "100 to 500 nM"
  },
  {
    "COMPOUND": "CC1(C)[C@@H](c2ccc(S(N)(=O)=O)nc2)[C@@H]1c1nc(C2CCCC2)no1 [Example B7]",
    "PARAMETER MEASURED": "EC50",
    "REPORTED RESULT": "100 to 500 nM"
  },
  {
    "COMPOUND": "CC1(C)[C@@H](c2ccc(S(N)(=O)=O)nc2)[C@@H]1c1nc(C2CC(F)(F)C2)no1 [Example B8]",
    "PARAMETER MEASURED": "EC50",
    "REPORTED RESULT": "500 to 5000 nM"
  }
]

Tell me its EC50 given CC1(C)[C@@H](c2ccc(S(N)(=O)=O)nc2)[C@@H]1c1nc(-c2ccccc2)no1 (racemic) [Example C6] as the entry.
500 to 5000 nM

Tell me its EC50 given CC1(C)[C@@H](c2ccc(S(N)(=O)=O)cn2)[C@@H]1c1nc(-c2cccc(C(F)(F)F)c2)no1 [Example F6] as the entry.
500 to 5000 nM

Tell me its EC50 given COc1ccc(Cl)cc1-c1noc([C@@H]2[C@@H](c3ccc(S(N)(=O)=O)cn3)C2(C)C)n1 [Example E4] as the entry.
5000 to 50000 nM

Tell me its EC50 given CC1(C)[C@@H](c2nc(-c3ccccc3)no2)[C@@H]1c1ncc(S(N)(=O)=O)s1 (racemic) [Example D4] as the entry.
100 to 500 nM

Tell me its EC50 given CC1(C)[C@@H](c2ccc(S(N)(=O)=O)cn2)[C@@H]1c1nc(C2CC2)no1 [Example F8] as the entry.
500 to 5000 nM

Tell me its EC50 given CC(C)(C)c1noc([C@H]2[C@H](c3ccc(S(N)(=O)=O)cn3)C2(C)C)n1 [Example F9] as the entry.
500 to 5000 nM

Tell me its EC50 given CC1(C)[C@@H](c2ccc(S(N)(=O)=O)nc2)[C@@H]1c1nc(-c2ccccc2)no1 [Example 3] as the entry.
100 to 500 nM

Tell me its EC50 given CC1(C)[C@@H](c2ccc(S(N)(=O)=O)cn2)[C@@H]1c1nc(-c2cncc(C(F)(F)F)c2)no1 [Example F2] as the entry.
500 to 5000 nM

Tell me its EC50 given CC1(C)C(c2ccc(S(N)(=O)=O)nc2)C1c1nc2ccccc2o1 (racemic) [Example C4] as the entry.
5000 to 50000 nM

Tell me its EC50 given CC1(C)[C@@H](c2ccc(S(N)(=O)=O)nc2)[C@@H]1c1noc(-c2c(F)ccc(F)c2F)n1 (racemic) [Example C1] as the entry.
500 to 5000 nM

Tell me its EC50 given NS(=O)(=O)c1ccc(C2CC2c2nc(-c3ccccc3)no2)cn1 (single isomer, unassigned) [Example 4] as the entry.
100 to 500 nM
